- PROCEDURE SUMMARY: Ocular tissue and plasma pharmacokinetics, 15 mg/kg single and BID oral, Dutch Belted rabbits (Example 3/5)
- Format: in vivo
- APPLIED CONDITIONS: Dutch Belted, rabbit, aqueous humor, po, 15 mg/kg, DB rabbit, 15 mg/kg BID oral, Day 15, 1 h; read-out: Mean Aqueous Humor concentration

STRUCTURE: CC(=O)c1nn(CC(=O)N2C[C@H](F)C[C@H]2C(=O)Nc2cccc(Br)n2)c2ccc(-c3cnc(C)nc3)cc12
VALUE UNIT: ng/mL
concentration at 1 h: 10.6

----------
- TARGET UNDER TEST: CFD (Homo sapiens, UniProt P00746)
- Sequence (P00746 26-253): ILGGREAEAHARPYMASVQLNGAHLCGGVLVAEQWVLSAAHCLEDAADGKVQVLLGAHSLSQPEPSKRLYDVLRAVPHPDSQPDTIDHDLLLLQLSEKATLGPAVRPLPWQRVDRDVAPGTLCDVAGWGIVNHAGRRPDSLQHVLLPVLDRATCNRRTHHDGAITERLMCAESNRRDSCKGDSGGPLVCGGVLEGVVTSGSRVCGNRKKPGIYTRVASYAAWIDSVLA

STRUCTURE: CC(=O)c1cn(CC(=O)N2[C@H](C(=O)Nc3nc(Br)ccc3C)C[C@@]3(C)C[C@@H]23)c2c(C)cc(-c3cnc(C)nc3)cc12
IC50: 32.1 nM

----------
- PROCEDURE SUMMARY: Ocular tissue distribution and pharmacokinetics, 7.5 and 15 mg/kg oral, pigmented Dutch Belted rabbits (Example 7)
- Assay type: in vivo
- APPLIED CONDITIONS: male, Dutch Belted, rabbit, retina, oral, […], DB rabbits, Day 1, […] single dose, 6 hr; read-out: Mean Retina Concentration

STRUCTURE: CC(=O)c1nn(CC(=O)N2C[C@H](F)C[C@H]2C(=O)Nc2cccc(Br)n2)c2ccc(-c3cnc(C)nc3)cc12
VALUE UNIT: ng/g
concentration at 6 h: 27.5

----------
- PROCEDURE SUMMARY: Ocular tissue and plasma pharmacokinetics, 15 mg/kg oral, New Zealand White rabbits (Example 3/5)
- Assay type: in vivo
- APPLIED CONDITIONS: New Zealand White, vitreous humor; NZW rabbit, 15 mg/kg single oral dose, Day 1, 1 h; read-out: Mean Vitreous Humor concentration
PROPERTY LABEL: concentration at 1 h (ng/mL)

STRUCTURE: CC(=O)c1nn(CC(=O)N2C[C@H](F)C[C@H]2C(=O)Nc2cccc(Br)n2)c2ccc(-c3cnc(C)nc3)cc12
TEST RESULT: 7.61

----------
- PROCEDURE SUMMARY: Ocular tissue distribution and pharmacokinetics, 7.5 and 15 mg/kg oral, pigmented Dutch Belted rabbits (Example 7)
- Type: in vivo
- APPLIED CONDITIONS: Dutch Belted, rabbit; plasma, male DB rabbits, Group 1, Day 1, 7.5 mg/kg single oral dose

STRUCTURE: CC(=O)c1nn(CC(=O)N2C[C@H](F)C[C@H]2C(=O)Nc2cccc(Br)n2)c2ccc(-c3cnc(C)nc3)cc12
Tmax, h: 1

----------
- PROCEDURE SUMMARY: Ocular tissue and plasma pharmacokinetics, 15 mg/kg single and BID oral, Dutch Belted rabbits (Example 3/5)
- Assay type: in vivo
- APPLIED CONDITIONS: Dutch Belted, rabbit, choroid-RPE, oral, 15 mg/kg, DB rabbits, Day 15, 15 mg/kg BID, 96 hr; read-out: Mean Choroid-RPE Concentration

STRUCTURE: CC(=O)c1nn(CC(=O)N2C[C@H](F)C[C@H]2C(=O)Nc2cccc(Br)n2)c2ccc(-c3cnc(C)nc3)cc12
concentration at 96 h: 866 ng/g

----------
- PROCEDURE SUMMARY: Ocular tissue and plasma pharmacokinetics, 15 mg/kg single and BID oral, Dutch Belted rabbits (Example 3/5)
- Assay type: in vivo
- APPLIED CONDITIONS: Dutch Belted, rabbit, iris-ciliary body, po, 15 mg/kg, Iris-Ciliary Body, DB rabbit, 15 mg/kg BID, Day 15; read-out: Cmax

MOLECULE: CC(=O)c1nn(CC(=O)N2C[C@H](F)C[C@H]2C(=O)Nc2cccc(Br)n2)c2ccc(-c3cnc(C)nc3)cc12 [Compound 1]
Cmax / ng/g: 4920

----------
- PROCEDURE SUMMARY: Ocular tissue and plasma pharmacokinetics, 15 mg/kg single and BID oral, Dutch Belted rabbits (Example 3/5)
- Format: in vivo
- APPLIED CONDITIONS: Dutch Belted, rabbit, iris-ciliary body, po, 15 mg/kg, DB rabbit, 15 mg/kg BID oral, Day 15, 96 h; read-out: Mean Iris-Ciliary Body concentration

STRUCTURE: CC(=O)c1nn(CC(=O)N2C[C@H](F)C[C@H]2C(=O)Nc2cccc(Br)n2)c2ccc(-c3cnc(C)nc3)cc12
concentration at 96 h: 1010 ng/g

----------
- PROCEDURE SUMMARY: Ocular tissue distribution and pharmacokinetics, 7.5 and 15 mg/kg oral, pigmented Dutch Belted rabbits (Example 7)
- Type: in vivo
- APPLIED CONDITIONS: Dutch Belted, rabbit, retina, oral, 15 mg/kg, DB rabbits, Day 15, 15 mg/kg BID, 1 hr; read-out: Mean Retina Concentration
PROPERTY LABEL: concentration at 1 h

STRUCTURE: CC(=O)c1nn(CC(=O)N2C[C@H](F)C[C@H]2C(=O)Nc2cccc(Br)n2)c2ccc(-c3cnc(C)nc3)cc12
TEST RESULT: 1120 ng/g

----------
- PROCEDURE SUMMARY: Ocular tissue and plasma pharmacokinetics, 15 mg/kg single and BID oral, Dutch Belted rabbits (Example 3/5)
- Assay type: in vivo
- APPLIED CONDITIONS: Dutch Belted, rabbit, retina, po, 15 mg/kg, retina, DB rabbit, 15 mg/kg BID, Day 15
PROPERTY LABEL: MRT last (h)

COMPOUND: CC(=O)c1nn(CC(=O)N2C[C@H](F)C[C@H]2C(=O)Nc2cccc(Br)n2)c2ccc(-c3cnc(C)nc3)cc12 [Compound 1]
TEST RESULT: 71

----------
- PROCEDURE SUMMARY: Ocular tissue distribution and pharmacokinetics, 15 mg/kg BID oral, nonpigmented New Zealand White rabbits (Example 7)
- Format: in vivo
- APPLIED CONDITIONS: New Zealand White, rabbit, choroid-RPE, oral; NZW rabbits, Day 15, 15 mg/kg BID, 1 hr; read-out: Mean Choroid-RPE Concentration

STRUCTURE: CC(=O)c1nn(CC(=O)N2C[C@H](F)C[C@H]2C(=O)Nc2cccc(Br)n2)c2ccc(-c3cnc(C)nc3)cc12
concentration at 1 h [ng/g]: 296

----------
- PROCEDURE SUMMARY: Ocular tissue and plasma pharmacokinetics, 50 mg/kg BID oral, Dutch Belted rabbits (Example 4/5)
- Assay type: in vivo
- APPLIED CONDITIONS: male, Dutch Belted, rabbit, iris-ciliary body, po, 50 mg/kg, DB rabbit, 50 mg/kg BID oral, Day 15, 24 h; read-out: Mean Iris-Ciliary Body concentration
PROPERTY LABEL: concentration at 24 h (ng/g)

STRUCTURE: CC(=O)c1nn(CC(=O)N2C[C@H](F)C[C@H]2C(=O)Nc2cccc(Br)n2)c2ccc(-c3cnc(C)nc3)cc12
VALUE UNIT: ng/g
TEST RESULT: 5560

----------
- PROCEDURE SUMMARY: Ocular tissue and plasma pharmacokinetics, 50 mg/kg BID oral, Dutch Belted rabbits (Example 4/5)
- Assay type: in vivo
- APPLIED CONDITIONS: male, Dutch Belted, rabbit, plasma, po, 50 mg/kg, DB rabbit, 50 mg/kg BID oral, Day 15, 1 h; read-out: Mean plasma concentration

COMPOUND: CC(=O)c1nn(CC(=O)N2C[C@H](F)C[C@H]2C(=O)Nc2cccc(Br)n2)c2ccc(-c3cnc(C)nc3)cc12 [Compound 1]
concentration at 1 h: 2900 ng/mL

----------
- PROCEDURE SUMMARY: Ocular tissue distribution and pharmacokinetics, 7.5 and 15 mg/kg oral, pigmented Dutch Belted rabbits (Example 7)
- Assay type: in vivo
- APPLIED CONDITIONS: male, Dutch Belted, rabbit, choroid-retinal pigment epithelium (choroid-RPE), po, 15 mg/kg, Choroid-RPE (OU), male DB rabbits, Group 3, Day 15, 15 mg/kg/dose BID oral (30 mg/kg/day)

STRUCTURE: CC(=O)c1nn(CC(=O)N2C[C@H](F)C[C@H]2C(=O)Nc2cccc(Br)n2)c2ccc(-c3cnc(C)nc3)cc12
VALUE UNIT: ng/g
Cmax: 3970

----------
- PROCEDURE SUMMARY: Ocular tissue and plasma pharmacokinetics, 15 mg/kg single and BID oral, Dutch Belted rabbits (Example 3/5)
- Assay type: in vivo
- APPLIED CONDITIONS: Dutch Belted, rabbit, iris-ciliary body, po, 15 mg/kg, Iris-Ciliary Body, DB rabbit, 15 mg/kg BID, Day 15
PROPERTY LABEL: MRT inf

COMPOUND: CC(=O)c1nn(CC(=O)N2C[C@H](F)C[C@H]2C(=O)Nc2cccc(Br)n2)c2ccc(-c3cnc(C)nc3)cc12 [Compound 1]
TEST RESULT: 81.5 h

----------
- PROCEDURE SUMMARY: Ocular tissue and plasma pharmacokinetics, 15 mg/kg oral, New Zealand White rabbits (Example 3/5)
- Format: in vivo
- APPLIED CONDITIONS: New Zealand White, plasma; NZW rabbit, 15 mg/kg single oral dose, Day 1, 6 h; read-out: Mean plasma concentration
PROPERTY LABEL: concentration at 6 h

COMPOUND: CC(=O)c1nn(CC(=O)N2C[C@H](F)C[C@H]2C(=O)Nc2cccc(Br)n2)c2ccc(-c3cnc(C)nc3)cc12 [Compound 1]
TEST RESULT: 35.1 ng/mL
